system.tested: CYP2C9 (Homo sapiens, UniProt P11712)
Sequence (P11712 whole entry): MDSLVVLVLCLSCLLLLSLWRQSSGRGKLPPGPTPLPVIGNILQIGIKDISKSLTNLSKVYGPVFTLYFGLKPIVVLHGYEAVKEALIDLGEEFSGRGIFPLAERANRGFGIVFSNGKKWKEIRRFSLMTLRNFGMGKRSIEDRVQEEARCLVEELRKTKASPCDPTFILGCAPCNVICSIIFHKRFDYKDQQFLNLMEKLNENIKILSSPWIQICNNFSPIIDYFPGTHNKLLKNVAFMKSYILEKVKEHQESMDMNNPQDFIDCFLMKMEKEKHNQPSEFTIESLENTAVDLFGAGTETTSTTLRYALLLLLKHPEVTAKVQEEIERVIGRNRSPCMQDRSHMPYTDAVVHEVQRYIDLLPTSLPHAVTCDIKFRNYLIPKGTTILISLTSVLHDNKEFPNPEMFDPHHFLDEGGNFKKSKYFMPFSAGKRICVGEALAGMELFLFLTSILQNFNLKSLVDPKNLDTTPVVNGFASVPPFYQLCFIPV
assay.explanation: Inhibition of recombinant human CYP2C9 assessed as remaining activity at 10 uM preincubated for 5 mins before substrate addition by Vivid fluorescence assay
Format: ADME
setup.conditions: read-out: Activity
readout: activity at 10 µM (%)

Illustrative cases are given below, each with its answer.
COc1ccc(-n2cnc3c(-c4ccccc4C)csc3c2=O)cc1 | 98.8
C#CCNc1ccnc2sc3c(=O)n(-c4ccc(OC)cc4)cnc3c12 | 93

A: COc1ccc(-n2cnc3c(-c4ccccc4F)csc3c2=O)cc1
B: COc1ccc(-n2cnc3c(-c4ccccc4)csc3c2=O)cc1
Returns: the argument ( A or B ) having the larger activity at 10 µM. Select an item and report its label.
A
(A: 93.8%, B: 18.3%)
